Give measured protein stability index for each item. Keep answers brief.
B1: TFE3 (parent)
chain: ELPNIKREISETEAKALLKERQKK

- Variants of: B1
- Assay overview: protein stability index of a GFP-peptide fusion (GPS, HEK-293T) (PSI 1-6); higher = more stable;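 note: lentivirally expressed fusions sorted by FACS into six bins by GFP to DsRed ratio, PSI derived from sequencing read proportions per bin multiplied by bin number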
- Experimental conditions: c terminus: a fixed tail appended
Output spec: single numeric token, no unit.

Problem: Return protein stability index (reported value) for this variant: A14E
Solution: 3.05

Problem: Return protein stability index (reported value) for this variant: K6A
Solution: 2.95

Problem: Return protein stability index (reported value) for this variant: E1Q
Solution: 2.99

Problem: Return protein stability index (reported value) for this variant: K23L
Solution: 2.91
